The reported numbers originate from PubChem BioAssay AID1963975.

pIC50 reference
system: 624824-186-R-J2-PDC multicell spheroids, viability; test: Anticancer human tumor 624824-186-R-J2-PDC patient-derived colon adenocarcinoma cell line growth inhibition [PI3K]; conditions: curve of first compound; second compound 0.316 µM
pIC50: −log10 of the molar value.

compound	limit-sign	pIC50
CC(C)n1nc(-c2ccc3oc(N)nc3c2)c2c(N)ncnc21 + COc1c(OCCCN2CCOCC2)ccc2c3n(c(=NC(=O)c4cnc(N)nc4)nc12)CCN3	=	7.12
CCCS(=O)(=O)Nc1ccc(F)c(C(=O)c2c[nH]c3ncc(-c4ccc(Cl)cc4)cc23)c1F + COc1c(OCCCN2CCOCC2)ccc2c3n(c(=NC(=O)c4cnc(N)nc4)nc12)CCN3	=	6.75
C#Cc1c(F)ccc2cc(O)cc(-c3ncc4c(N5CC6CCC(C5)N6)nc(OCC56CCCN5CC(F)C6)nc4c3F)c12 (stereo not drawn) + CC(Nc1ncnc2nc[nH]c12)c1cc2cccc(Cl)c2c(=O)n1-c1ccccc1	<	5.00

----------
system: 624824-186-R-J2-PDC multicell spheroids, viability; assay: Anticancer human tumor 624824-186-R-J2-PDC cell line growth inhibition [PI3K]; details: second compound 1 µM; first compound 3.16 µM; stronger effect = lower value;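 also: spheroids exposed to agents for 7 days before viability read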;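 as to viability, T/C: 100% = DMSO vehicle treated spheroids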
viability, T/C reference

molecule	viability, T/C / %
CC1(C)CCC(Nc2ncc(C(F)(F)F)c(-c3c[nH]c4c(P(C)(C)=O)c(C#N)ccc34)n2)CN1 (stereo not drawn) + CC(Nc1ccc2c(c1)OCCn1cc(N3C(=O)OCC3C(F)F)nc1-2)C(N)=O	51.5
C[C@@H](NC(=O)c1ncnc(N)c1Cl)c1ncc(C(=O)Nc2cc(C(F)(F)F)c(Cl)cn2)s1 + COc1c(OCCCN2CCOCC2)ccc2c3n(c(=NC(=O)c4cnc(N)nc4)nc12)CCN3	39.2
Cn1nccc1Nc1nccc(-c2ccn(C(CO)c3ccc(Cl)c(F)c3)c(=O)c2)n1 (stereo not drawn) + CC(Nc1ncnc2nc[nH]c12)c1cc2cccc(Cl)c2c(=O)n1-c1ccccc1	80.3
C#Cc1c(F)ccc2cc(O)cc(-c3ncc4c(N5CC6CCC(C5)N6)nc(OCC56CCCN5CC(F)C6)nc4c3F)c12 (stereo not drawn) + Cc1nc(NC(=O)N2CCCC2C(N)=O)sc1-c1ccnc(C(C)(C)C(F)(F)F)c1	79.8
C[C@@H](NC(=O)c1ncnc(N)c1Cl)c1ncc(C(=O)Nc2cc(C(F)(F)F)c(Cl)cn2)s1 + CC(Nc1ncnc2nc[nH]c12)c1cc2cccc(Cl)c2c(=O)n1-c1ccccc1	55
CC1(C)CCC(CN2CCN(c3ccc(C(=O)NS(=O)(=O)c4ccc(NCC5CCOCC5)c([N+](=O)[O-])c4)c(Oc4cnc5[nH]ccc5c4)c3)CC2)=C(c2ccc(Cl)cc2)C1 + CC(Nc1ncnc2nc[nH]c12)c1cc2cccc(Cl)c2c(=O)n1-c1ccccc1	77
C=CC(=O)N1CCN(c2nc(=O)n(-c3c(C)ccnc3C(C)C)c3nc(-c4c(O)cccc4F)c(F)cc23)C(C)C1 (stereo not drawn) + Cc1nc(NC(=O)N2CCCC2C(N)=O)sc1-c1ccnc(C(C)(C)C(F)(F)F)c1	85.2
C[C@@H](NC(=O)c1ncnc(N)c1Cl)c1ncc(C(=O)Nc2cc(C(F)(F)F)c(Cl)cn2)s1 + Cc1nc(NC(=O)N2CCCC2C(N)=O)sc1-c1ccnc(C(C)(C)C(F)(F)F)c1	68.3
